target: DLK (Homo sapiens, UniProt Q12852); construct: N-terminally GST-tagged DLK (catalytic domain amino acid 1-520) (Carna Bioscience); GST (N); assay: DLK TR-FRET assay; conditions: 5 nM GST-tagged DLK (catalytic domain amino acid 1-520), 40 nM HIS-tagged MKK4 K131M substrate, 30 μM ATP, 60 minutes
Sequence (Q12852 1-520): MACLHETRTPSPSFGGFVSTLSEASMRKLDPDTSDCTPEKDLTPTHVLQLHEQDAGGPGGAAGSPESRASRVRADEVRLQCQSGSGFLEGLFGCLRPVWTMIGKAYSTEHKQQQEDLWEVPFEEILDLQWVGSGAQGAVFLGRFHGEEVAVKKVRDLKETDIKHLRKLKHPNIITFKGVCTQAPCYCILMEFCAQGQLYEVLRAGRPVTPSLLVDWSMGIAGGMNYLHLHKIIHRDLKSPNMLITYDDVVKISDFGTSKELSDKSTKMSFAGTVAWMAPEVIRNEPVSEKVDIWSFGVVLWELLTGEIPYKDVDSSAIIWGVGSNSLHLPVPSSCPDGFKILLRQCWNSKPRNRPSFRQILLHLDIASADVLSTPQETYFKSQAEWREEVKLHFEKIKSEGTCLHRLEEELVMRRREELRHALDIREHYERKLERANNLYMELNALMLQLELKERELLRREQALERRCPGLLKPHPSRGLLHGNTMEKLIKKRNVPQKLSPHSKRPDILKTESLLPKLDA
One threshold, 10 nM, splits the recorded Ki values: lower ones are rule met, equal or higher ones are rule not met.

Completed entries (count: 5):
{"molecule": "N#Cc1ccnc(Nc2cc(C3CCN(C4COC4)CC3)cc(N3CCC3)n2)c1", "qualitative-label": "rule met"}
{"molecule": "N#Cc1ccnc(Nc2cc(C3CCN(C4COC4)CC3)cc(N3CC4CC4C3)n2)c1 (centres unmarked)", "qualitative-label": "rule met"}
{"molecule": "CC(=O)N1CC(c2cc(Nc3cc(C(F)(F)F)ccn3)nc(N3CCC(F)(F)C3)c2)C1", "qualitative-label": "rule met"}
{"molecule": "N#Cc1ccnc(Nc2cc(C3(C#N)CCOCC3)cc(N3CC4CC(F)(F)C4C3)n2)c1 (centres unmarked)", "qualitative-label": "rule met"}
{"molecule": "COC1CN(c2cc(C3CCN(C4COC4)CC3)cc(Nc3cc(C(F)F)ccn3)n2)C1", "qualitative-label": "rule not met"}

Take the molecule COC1CN(c2cc(C3(C#N)CCNCC3)cc(Nc3cc(C(F)(F)F)ccn3)n2)C1 and say whether its Ki is less than 10 nM. rule met

Take the molecule Cc1cc(C2CCOCC2)cc(Nc2cc(CN)ccn2)n1 and say whether its Ki is less than 10 nM. rule not met

Take the molecule N#Cc1ccnc(Nc2cc(C3CCOCC3)cc(N3CC4CC(F)(F)C4C3)n2)c1 (centres unmarked) and say whether its Ki is less than 10 nM. rule not met
